Lab note: pIC50 readings collected with Cholinesterase (Homo sapiens) for the following compounds.
Sequence (P06276 whole entry): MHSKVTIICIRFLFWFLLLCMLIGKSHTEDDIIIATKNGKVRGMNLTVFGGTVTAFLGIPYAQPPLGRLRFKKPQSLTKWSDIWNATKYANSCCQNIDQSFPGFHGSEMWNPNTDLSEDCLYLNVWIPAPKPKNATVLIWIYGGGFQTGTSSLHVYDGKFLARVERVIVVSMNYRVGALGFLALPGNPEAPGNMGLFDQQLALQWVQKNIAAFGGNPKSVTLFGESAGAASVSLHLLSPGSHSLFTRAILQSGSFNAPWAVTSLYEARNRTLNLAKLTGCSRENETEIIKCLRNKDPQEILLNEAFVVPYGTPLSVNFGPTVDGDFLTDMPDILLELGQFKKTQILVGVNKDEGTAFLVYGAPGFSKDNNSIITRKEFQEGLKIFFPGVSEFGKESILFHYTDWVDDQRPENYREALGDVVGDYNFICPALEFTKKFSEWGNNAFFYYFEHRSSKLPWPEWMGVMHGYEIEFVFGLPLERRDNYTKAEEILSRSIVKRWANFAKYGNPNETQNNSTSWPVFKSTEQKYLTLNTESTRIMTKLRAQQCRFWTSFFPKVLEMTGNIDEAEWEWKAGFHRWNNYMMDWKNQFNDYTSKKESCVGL
Answers are plain numbers, as −log10 of the molar value.

Here's what some known entries look like.
{"columns": ["chemical.structure", "target.system", "pIC50"],
 "data": [
  ["CN(CCC(=O)NCCCCNc1c2c(nc3ccccc13)CCCC2)C1CCCCC1", "Cholinesterase (Homo sapiens)", 5.65],
  ["CN(CCC(=O)NCCNc1c2c(nc3ccccc13)CCCC2)C1CCCCC1", "Cholinesterase (Homo sapiens)", 5.69]
]}

Now turn to the next compound.
The value of pIC50 measured for the compound `O=C(Cc1cc(=O)oc2cc(O)ccc12)NNC(=S)Nc1c2c(nc3ccccc13)CCCC2` turned out to be 5.85
